system: MRC5 cells; test: Cell viability assay in MRC5 cells (MTT); settings: 1000 nM
valueType: Cell viability at 1000 nM (%)
# number only, unit % dropped from output

# annotated cases, reported Cell viability at 1000 nM (%) shown
COC(=O)c1cc2c(cc1C)/C(=C(/Nc1ccc(C(=O)N3CCC(O)(CN4CCOCC4)CC3)cc1)c1ccccc1)C(=O)N2
62.8
COC(=O)c1cc2c(cc1C)/C(=C(/Nc1ccc(C(=O)NCCN3CCC(F)(F)CC3)cc1)c1ccccc1)C(=O)N2
62.1

Which Cell viability at 1000 nM (%) reading was recorded for the molecule COC(=O)c1cc2c(cc1C)/C(=C(/Nc1ccc(C(=O)NCCN3CCN(C(C)=O)CC3)cc1)c1ccccc1)C(=O)N2 ?
45.9

I am curious: what Cell viability at 1000 nM (%) value has been reported for COC(=O)c1cc2c(cc1C)/C(=C(/Nc1ccc(C(=O)N3CCN(CC(=O)NCCO)CC3)cc1)c1ccccc1)C(=O)N2 ?
85.6

Look at this molecule and give its reported Cell viability at 1000 nM (%). COC(=O)c1cc2c(cc1C)/C(=C(/Nc1ccc(C(=O)NCCN(C)CCO)cc1)c1ccccc1)C(=O)N2
83.8

# lookup: Cell viability at 1000 nM (%) of COC(=O)c1cc2c(cc1C)/C(=C(/Nc1ccc(C(=O)NCCN3CCC(O)CC3)cc1)c1ccccc1)C(=O)N2
93.4

Could you share which Cell viability at 1000 nM (%) value was measured for COC(=O)c1cc2c(cc1C)/C(=C(/Nc1ccc(C(=O)NCCN3CCCNC(=O)C3)cc1)c1ccccc1)C(=O)N2 ?
102.0

###

experiment: PAMPA permeability assay; type: in vitro ADME; conditions: pH 7, PAMPA, pH 7, 10 μM, 5 hr
Papp at 5 hr, 10 μM of 0.007 ×10⁻⁶ cm/s or higher: T. Under 0.007 ×10⁻⁶ cm/s: F.

Past entries and their recorded results:
COC(=O)c1cc2c(cc1C)/C(=C(/Nc1ccc(C(=O)NCCN3CCCN(C)CC3)cc1)c1ccccc1)C(=O)N2
F
COC(=O)c1cc2c(cc1C)/C(=C(/Nc1ccc(S(=O)(=O)NCCN3CCN(C)CC3)cc1)c1ccccc1)C(=O)N2
T
COC(=O)c1cc2c(cc1C)/C(=C(/Nc1ccc(C(=O)NCC(=O)N3CCN(CCO)CC3)cc1)c1ccccc1)C(=O)N2
F

In plain terms: is recorded Papp at 5 hr, 10 μM at least 0.007 ×10⁻⁶ cm/s for COC(=O)c1cc2c(cc1C)/C(=C(/Nc1ccc(C(=O)NCCN3CCC(O)CC3)cc1)c1ccccc1)C(=O)N2 ?
F

Threshold query (Papp at 5 hr, 10 μM >= 0.007 ×10⁻⁶ cm/s) on COC(=O)c1cc2c(cc1C)/C(=C(/Nc1ccc(C(=O)NCCN3CCC(N(C)C)CC3)cc1)c1ccccc1)C(=O)N2
T

Test whether the compound COC(=O)c1cc2c(cc1C)/C(=C(/Nc1ccc(C(=O)NCC(=O)N3CCN(C)CC3)cc1)c1ccccc1)C(=O)N2 records Papp at 5 hr, 10 μM of 0.007 ×10⁻⁶ cm/s or higher.
T

###

assay: Pharmacokinetic measurements in rats (i.v., i.t., oral); assay type: in vivo; conditions: male, CD, rat, lung, other: intra-tracheal; read-out: lung concentration (nM) at time 1.5 h
Counter-ions that a name gives are not always drawn.
valueType: concentration at 1.5 h

COC(=O)c1cc2c(cc1C)/C(=C(/Nc1ccc(C(=O)NCCN3CCNC(=O)C3)cc1)c1ccccc1)C(=O)N2
8810 nM
COC(=O)c1cc2c(cc1C)/C(=C(/Nc1ccc(C(=O)NCC3CCN(C)CC3)cc1)c1ccccc1)C(=O)N2 [Example 3, formate]
4990 nM
COC(=O)c1cc2c(cc1C)/C(=C(/Nc1ccc(C(=O)NC3CCN(C)CC3)cc1)c1ccccc1)C(=O)N2 [Example 18, formate]
5990 nM
COC(=O)c1cc2c(cc1C)/C(=C(/Nc1ccc(C(=O)NCCN3CCN(C)CC3)cc1)c1ccccc1)C(=O)N2
1210 nM

Next up:
Bench note: what concentration at 1.5 h did COC(=O)c1ccc2c(c1)NC(=O)/C2=C(\Nc1ccc(N(C)C(=O)CN2CCN(C)CC2)cc1)c1ccccc1 [Nintedanib, reference compound] show?
7700 nM
